Target: UniProt:Q9H6Z9
Sequence (Q9H6Z9 whole entry): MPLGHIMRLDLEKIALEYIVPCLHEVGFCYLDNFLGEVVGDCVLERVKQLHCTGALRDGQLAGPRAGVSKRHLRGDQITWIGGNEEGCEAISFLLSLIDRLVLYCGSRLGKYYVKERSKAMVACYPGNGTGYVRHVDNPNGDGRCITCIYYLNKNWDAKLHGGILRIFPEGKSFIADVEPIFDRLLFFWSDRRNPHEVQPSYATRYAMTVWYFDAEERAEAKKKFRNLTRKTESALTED
Experiment: Inhibition of PHD3 in human Hep3B cells assessed as stimulation of EPO release after 48 hrs by ELISA
Type: cell-based, Hep 3B2
ASSAY_METRIC: pEC50
Scale: pEC50 equals -log10([C]), with [C] in mol/L.

Sample answers from the record:
| SMI | pEC50 |
| --- | --- |
| O=C(O)CNC(=O)c1c(O)c(C(=O)NCc2ccccc2)cn(Cc2ccccc2)c1=O | 9.00 |
| O=C(O)CNC(=O)c1c(O)c(C(=O)NCc2ccccc2)c(O)n(Cc2ccccc2)c1=O | 9.00 |
| COc1ccc(-n2c(=O)[nH]c3cc(C(=O)NCc4ccc(Cl)cc4)ncc3c2=O)nc1OC | 6.00 |

Field: next compound
Please report the recorded pEC50 for CC(C)(C)c1ccc(Cn2c(-c3c(Cl)cccc3Cl)nc(O)c(C(=O)NCC(=O)O)c2=O)cc1 .
6.40
